Molecular target: IL-4Rα (on TF-1 cells) (UniProt P24394 26-825, limits assumed)
Test: cell-based or functional assay
endpoint-name: EC50 of neutralizing IL-4-induced TF-1 proliferation (µM)
Give just the numeric value; µM need not be written.

The reported value for humanized anti-IL-4Rα single domain antibody 4E9-V12 (VHH) VHH: QVQLVESGGGLVQPGGSLRLSCAASGDFYCMAWFRQAPGKEREAVATIRSGGRSTYLADSVKGRFTISRDNSKNTLYLQMNSLKAEDTAVYYCAVGVDGNCRNYWGQGTLVTVSS in terms of EC50 of neutralizing IL-4-induced TF-1 proliferation is 0.00203

The reported value for humanized anti-IL-4Rα single domain antibody 4E9-V7 (VHH) VHH: QVQLVESGGGLVQPGGSLRLSCAASGDFYCMAWFRQAPGKEREAVAIRSGGRSTYLADSVKGRFTISRDNSKNTLYLQMNSLKAEDTAVYYCAVGVDGNCRNYWGQGTLVTVSS in terms of EC50 of neutralizing IL-4-induced TF-1 proliferation is 0.185

The reported value for humanized anti-IL-4Rα single domain antibody 4E9-V11 (VHH) VHH: QVQLVESGGGLVQPGGSLRLSCAASGDFYCMAWFRQAPGKEREAVAIRSGGRSTYYADSVKGRFTISRDNSKNTLYLQMNSLKAEDTAVYYCAVGVDGNCRNYWGQGTLVTVSS in terms of EC50 of neutralizing IL-4-induced TF-1 proliferation is 1880

The reported value for humanized anti-IL-4Rα single domain antibody 4E9-V2 (VHH) VHH: QVQLVESGGGLVQPGGSLRLSCAASGDFYCLGWFRQAPGQEREAVAAIRSGGRSTYYADSVKGRFTISRDNSKNTLYLQMNSLRAEDTAVYYCAVGVDGNCRNYWGQGTLVTVSS in terms of EC50 of neutralizing IL-4-induced TF-1 proliferation is 0.0521
